measurement target: T1, human MSLN-FL-his protein (human, UniProt Q13421 296-580)
T1 construct: Made in HEK293E cells, purified on nickel column; also called hMSLN-FL-his; human MSLN full-length protein; not shown: His tag
T1 sequence (Q13421 other isoform, or with tags, fused parts or gaps): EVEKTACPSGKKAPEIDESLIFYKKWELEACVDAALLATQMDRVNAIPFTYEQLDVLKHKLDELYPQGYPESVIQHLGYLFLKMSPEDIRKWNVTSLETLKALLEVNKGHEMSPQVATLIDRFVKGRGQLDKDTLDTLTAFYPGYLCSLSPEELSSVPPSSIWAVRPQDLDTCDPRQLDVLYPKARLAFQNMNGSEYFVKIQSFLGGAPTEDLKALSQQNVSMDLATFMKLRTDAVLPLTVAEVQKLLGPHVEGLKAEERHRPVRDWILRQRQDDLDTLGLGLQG
experiment summary: ELISA, coated antigen, antibody 200 nM
Below, each of the binders is paired with its reported OD450 value.
readout kind: OD450

binder	result number
S009-F7.26.15 chimeric antibody (antibody, human IgG1, kappa, V domains shown, Human-murine chimeric antibody, human IgG1/kappa constant regions) VH: DVQLQESGPGLVKPSQTVFLTCTVTGISITTGNYRWSWIRQFPGNKLEWIGYIYYTGFITYNPSLTSRTTITRDTPKNQFFLEMKSLTAEDTATYYCARDDYDYDVFAYWGQGTLVTVSA VL: DIQMTQSPASLSASVGETVTITCRASGNIHNYLAWYHQKQGKSPQFLVYKAKTLADGVPSRFSGSGSGTQYSLKINRLQPEDFGSYYCQHFLSIPLTFGAGTKLELKR	2.39
S009-F7.44.20 chimeric antibody (antibody, human IgG1, kappa, V domains shown, Human-murine chimeric antibody, human IgG1/kappa constant regions) VH: EVQLQQSGPELVKPGASVKIPCKASGYTFTDYNMDWVKQSHGKSLEWIGDINPSTGGTIYNQKFNGKATLTEDKSASTVYMEFRSLTSDDTAVYYCARRRIGTGYFDVWGTGTTVTVSS VL: QIVLTQSPALMSASPGEKVTLTCSASSSVISSYLSWYQQKPGSSPKLLIYRTSNLASGVPARFSGSGSGTSYSLTISSMEAEDAASYFCHQWSSFPYTFGGGTKLEIKR	2.36
S009-F7.69.8 chimeric antibody (antibody, human IgG1, kappa, V domains shown, Human-murine chimeric antibody, human IgG1/kappa constant regions) VH: EVHLQQSGPELVKPGASVRIPCKASGYTFTDYNMDWVKQSHGKSLEWIGDINPDNGGTIYTQKFKGKATLTVDKSSSTAYMELRSLTSEDTAVYYCARRLHYYGSSGLDYWGQGTTLTVSS VL: DIQMTQSPASLSAYVGETVTITCRASGNIHNYLAWYQQKQGKSPQLLVYNAKTLADGVPSRFSGSGSGTQYSLKINSLQPEDFGSYYCQHFWSTVWTFGGGTKLEIKR	2.1
S009-F7.2.3 chimeric antibody (antibody, human IgG1, kappa, V domains shown, Human-murine chimeric antibody, human IgG1/kappa constant regions) VH: ELQLVESGGDLVKPGGSLKLSCAASGFTFSSNGMSWLRQTPDKRLEWVATISSGGRYTYYPDSVKGRFTISRDNAKNTLYLQMSSLKSEDTAMYYCARRGIYDYFDCWGQGTTLTVSS VL: DIQMTQSPASLSISVGETVTITCRASENIHSSLAWYQQKQGKSPQLLVYAATNLADGVPSRFSGSGSGSQYSLKINSLQSEDFGTYYCQHFWGTPWTFGGGTKLDIKR	2.91
